test system: OVCAR-5; experiment: NCI tumour cell line growth inhibition, 48 h
The source made the active and inactive calls. No stated cut-off is given here; in the data, active = GI50 up to about 1.1 µM and inactive = higher.
quantity.kind: GI50

Guide cases for GI50, answers given:
>  <compound>
CCOC(=O)n1cncc1CC(NC(=O)Cc1c(C(=O)C=C(C)C)[nH]c2ccccc12)C(=O)OC (stereo not given)

>  <GI50>
15.5 µM (inactive)

$$$$
>  <compound>
CC12c3c4ccc(C=O)c3Oc3ccc(C=O)c(c31)Oc1ccc(C=O)c(c12)O4

>  <GI50>
> 25 µM (inactive)

$$$$
>  <compound>
O=C(c1ccco1)N(C(=S)N1CCN(c2ccccn2)CC1)C1CCCCC1

>  <GI50>
> 100 µM (inactive)

$$$$
>  <compound>
CC(=O)N1c2ccccc2C2=CC3C4C(=O)N(c5ccccc5)C(=O)C4C21C1C(=O)N(c2ccccc2)C(=O)C31 (stereo not given)

>  <GI50>
55.1 µM (inactive)

$$$$
>  <compound>
CCOC(=O)C(C[Si](C)(C)C)P(=O)(OCC)OCC (stereo not given)

>  <GI50>
> 100 µM (inactive)

$$$$

Lab note: each compound below needs its GI50 filled in.
1. COc1ccc(-c2cc(N3CCN(c4ccccc4)CC3)c(C#N)c(=O)o2)cc1
2. O=C1O[C@@H](c2ccccc2)C[C@@H]1CN1CCOCC1
3. CCCCNC(=S)c1ccc(OC(=O)Nc2ccc(Cl)cc2)cc1

Ans.
1. > 100 µM (inactive)
2. > 100 µM (inactive)
3. 40.3 µM (inactive)

Lab note: each compound below needs its GI50 filled in.
1. CC1=C(/C(C)=N/NC(=O)c2ccccc2O)C(C)C(/C(C)=N/NC(=O)c2ccccc2O)=C(C)N1
2. CC(=O)NNc1nc(C)c(C(=O)/C=C/c2ccc(N(C)C)cc2)s1

Ans.
["24.2 µM (inactive)", "> 100 µM (inactive)"]

---

system: SK-MEL-5; test: NCI tumour cell line growth inhibition, 48 h
The source made the active and inactive calls. Rule as the data show it: active = GI50 up to about 1.1 µM and inactive = higher.
The categories you may choose from are YES = active, NO = inactive

// known answers, use as guide
>  <compound>
CN(C)c1ccc(/C=C2\C[C@H]3[C@@H]4CCC5=CC(=O)CC[C@]5(C)[C@H]4CC[C@]3(C)C2=O)cc1

>  <label.class>
NO

$$$$
>  <compound>
Cn1c(=O)nc2n(-c3cccc(Cl)c3)c3ccccc3nc-2c1=O

>  <label.class>
NO

$$$$
>  <compound>
CCOC(=O)C(C[Si](C)(C)C)P(=O)(OCC)OCC (stereo not given)

>  <label.class>
NO

$$$$
>  <compound>
COC(=O)[C@H](C)N1C(=O)N[C@@H](C(C)C)C1=O

>  <label.class>
NO

$$$$
>  <compound>
O=C1CCCC1C(O)(C(F)(F)Cl)C(F)(F)Cl (stereo not given)

>  <label.class>
NO

$$$$
>  <compound>
Nc1nc(NCc2ccccc2)cc(NCc2ccccc2)n1

>  <label.class>
NO

$$$$
>  <compound>
COc1c(NC(C)=O)c2ccccc2c2ccccc12

>  <label.class>
NO

$$$$
>  <compound>
O=C(O)C(SC(=S)c1ccc(C(=S)SC(C(=O)O)c2ccccc2)cc1)c1ccccc1 (stereo not given)

>  <label.class>
NO

$$$$
>  <compound>
CC(=O)O[C@H]1CCC2[C@@H]3CCC4Nc5c(cnn5-c5ccccc5)C[C@]4(C)C3CC[C@@]21C (stereo not given in full)

>  <label.class>
NO

$$$$
>  <compound>
COc1ccc(C2CC(c3c(C)nn(-c4ccccc4)c3-c3ccc(C)cc3O)=NN2c2ccccc2)cc1 (stereo not given)

>  <label.class>
NO

$$$$

Qu. In this assay, the call recorded for "COc1ccc(C[C@H]2COC(=O)[C@@H]2Cc2cccc(Br)c2)cc1OC" was what?
Ans. NO

Qu. In this assay, the call recorded for "CC(C)=CCNc1nc(Cl)nc2[nH]cnc12" was what?
Ans. NO

Qu. In this assay, the call recorded for "C/C(CC(=O)CCC(=O)Nc1cccc(C(F)(F)F)c1)=N\NC(=O)NN" was what?
Ans. NO

Qu. In this assay, the call recorded for "CC(C)=CCC[C@@H](C)C1=C(O)C(=O)C(C)=C(Nc2ccccc2I)C1=O" was what?
Ans. NO

Qu. In this assay, the call recorded for "COc1ccc2cc(C(=O)NCCCNC(=O)c3ccc4cc(OC)ccc4c3)ccc2c1" was what?
Ans. NO

Qu. In this assay, the call recorded for "c1ccc(CN2CCC(=NN3CCCCC3)CC2)cc1" was what?
Ans. NO

Qu. In this assay, the call recorded for COc1ccc(NC(=O)CC(=O)N2N=C(N(CCC#N)c3cccc(C)c3)CC2c2ccccc2)cc1 (stereo not given) was what?
Ans. NO

Qu. In this assay, the call recorded for "Clc1ccccc1CN1COc2c(cc(Cl)c3cccnc23)C1" was what?
Ans. NO

---

tested on: ACHN; assay: NCI tumour cell line growth inhibition, 48 h
Calls of active or inactive are those of the source. Rule as the data show it: active = GI50 up to about 1.1 µM and inactive = higher.
The categories you may choose from are 1.0 for active, 0.0 for inactive

// known answers, use as guide
>  <compound>
Nc1c(-c2ccccc2-c2c(N)[n+]([O-])c3ccccc3[n+]2[O-])[n+]([O-])c2ccccc2[n+]1[O-]

>  <label.class>
0.0

$$$$
>  <compound>
NC(=O)CN(CC(N)=O)C(N)=O

>  <label.class>
0.0

$$$$
>  <compound>
CC12c3c4ccc(C=O)c3Oc3ccc(C=O)c(c31)Oc1ccc(C=O)c(c12)O4

>  <label.class>
0.0

$$$$
>  <compound>
Cc1ccc(-c2c(-c3ccccc3)[nH]c(C)c2C(=O)ONC(=O)c2ccccc2)cc1

>  <label.class>
0.0

$$$$

Qu. In this assay, the call recorded for "COC(=O)[C@@H]1CN(C(=O)c2ccccc2)C(=O)N1C(=O)OCc1ccccc1" was what?
Ans. 0.0

Qu. In this assay, the call recorded for "S=C(NCc1ccccc1)N/N=C/c1ccccn1" was what?
Ans. 0.0

Qu. In this assay, the call recorded for "c1ccc2c(c1)Nc1ccccc1[P+]21c2ccccc2Nc2ccccc21" was what?
Ans. 0.0

Qu. In this assay, the call recorded for CC1(C)OC2C(COC(c3ccccc3)(c3ccccc3)c3ccccc3)OC(c3c[nH]c4c(N)ncnc34)C2O1 (stereo not drawn) was what?
Ans. 0.0

Qu. In this assay, the call recorded for "CSc1nc(Nc2cccc(C(F)(F)F)c2)c2c(N)nn(C)c2n1" was what?
Ans. 0.0

Qu. In this assay, the call recorded for "COc1ccc(/C=C2\C(=O)N(C)C(=O)c3cc(OC)c(OC)cc32)cc1OC" was what?
Ans. 0.0

Qu. In this assay, the call recorded for CNC(=O)N(CCCCC(NC(C)=O)C(=O)NCc1ccccc1)Cc1ccccc1 (stereo not drawn) was what?
Ans. 0.0

Qu. In this assay, the call recorded for Cc1cc(OC(=O)c2c(C)cc(OC(=O)c3c(C)cc(O)cc3O)cc2O)cc(O)c1C(=O)O [GYROPHORIC ACID] was what?
Ans. 0.0

Qu. In this assay, the call recorded for "C1CCCCc2nc3c(nc2CCC1)c1nc2c(nc1c1nc4c(nc31)CCCCCCCC4)CCCCCCCC2" was what?
Ans. 0.0

Qu. In this assay, the call recorded for "COc1c(NC(C)=O)c2ccccc2c2ccccc12" was what?
Ans. 0.0

Qu. In this assay, the call recorded for "O=C1NC(=O)C(c2c[nH]c3cc(Br)ccc23)=C1c1cnc[nH]1" was what?
Ans. 0.0

Qu. In this assay, the call recorded for "C[C@]12CCC(=O)C=C1C[C@@H](O)[C@@H]1[C@@H]2CC[C@@]2(C)[C@H]1CC[C@]2(C)O" was what?
Ans. 0.0

Qu. In this assay, the call recorded for "CN(CCc1ccc(Cl)c(Cl)c1)CCN(C)CCN1CCCC1" was what?
Ans. 0.0

Qu. In this assay, the call recorded for C[C@H]1O[C@@H](O[C@H]2[C@@H](O)C[C@H](O[C@H]3[C@@H](O)C[C@H](O[C@H]4CC[C@@]5(C)[C@H](CC[C@@H]6[C@@H]5CC[C@]5(C)[C@@H](C7=CC(=O)OC7)[C@@H](O)C[C@]65O)C4)O[C@@H]3C)O[C@@H]2C)C[C@H](O)[C@@H]1O [GITOXIN] was what?
Ans. 1.0

---

tested on: SF-295; test: NCI tumour cell line growth inhibition, 48 h
The source made the active and inactive calls. Rule as the data show it: active = GI50 up to about 1.1 µM and inactive = higher.
The categories you may choose from are active, inactive

Qu. In this assay, the call recorded for "Cc1ccc2[nH]c(=O)c(-c3cnc(O)nn3)c(O)c2c1" was what?
Ans. inactive

Qu. In this assay, the call recorded for "CCCC(=O)N[C@H]1CCc2cc(OC)c(OC)c(OC)c2-c2ccc(SC)c(=O)cc21" was what?
Ans. active

Qu. In this assay, the call recorded for "COc1ccc(Nc2cnc3cc(N)ccc3n2)cc1OC" was what?
Ans. inactive

Qu. In this assay, the call recorded for "CN(/N=C/c1ccc(Cl)c(Cl)c1)C1=NCCN1" was what?
Ans. inactive

Qu. In this assay, the call recorded for "CN(C)CCc1c2c(nc3ccccc13)C(=O)c1cccnc1C2=O" was what?
Ans. active

Qu. In this assay, the call recorded for "COc1ccc(/C=C/C(=O)c2sc(NC(=S)NC(=O)c3ccc(Cl)cc3)nc2C)cc1OC" was what?
Ans. inactive

Qu. In this assay, the call recorded for "C[C@H]1O[C@@H](O[C@H]2[C@@H](O)C[C@H](O[C@H]3[C@@H](O)C[C@H](O[C@H]4CC[C@@]5(C)[C@H](CC[C@@H]6[C@@H]5CC[C@]5(C)[C@@H](C7=CC(=O)OC7)[C@@H](O)C[C@]65O)C4)O[C@@H]3C)O[C@@H]2C)C[C@H](O)[C@@H]1O" was what?
Ans. active

Qu. In this assay, the call recorded for "Cc1nnc(-n2c(O)cc(=O)n(-c3ccccc3)c2=S)nc1/C=C/c1ccc(N(C)C)cc1" was what?
Ans. inactive
